Tested on: COLO 205 colon
Test: NCI-60 one-dose screen, 48 h
Details: 10 µM unless noted
This is part of a sample that, as a whole, favours compounds with a hit. Of some 83,000 tested, about 20% had one in any assay. Calls of active or inactive are those of the source. The calls were made as follows: active = growth percent below 10; inactive = the rest. Where a SMILES comes first, the peptide text is derived from it. The star is where a group is joined. Trt = c1ccc(C(c2ccccc2)(c2ccccc2)*)cc1; Cbz = O=C(OCc1ccccc1)*
Respond with a class label; see active, inactive

Problem: Recorded test outcome, item CNc1ccc2c(c1)c1ccccc1n2C
Solution: inactive

Problem: Entry O=C(/C=C\c1ccccc1)N1c2ccccc2CC1c1c[nH]c2ccccc12 (stereo not drawn) : call = ?
Solution: inactive

Problem: In this assay, the call recorded for CC1OC2CC(=O)OC2C2=C1C(=O)c1c(O)cccc1C2=O (stereo not drawn) was what?
Solution: active

Problem: Identify the outcome logged in this assay for the compound shown: NC(=S)N/N=C\c1nccc2c(C(F)(F)C(F)(F)C(F)(F)F)cccc12
Solution: inactive

Problem: Test call, this compound: CCC(CCCN(CC)CCc1ccccc1)OC(=O)c1cc(OC)c(OC)c(OC)c1 (stereo not drawn)
Solution: inactive

Problem: Assay result, entry Cc1ccc(C(=Nc2ccccc2)N=P(c2ccccc2)(c2ccccc2)c2ccccc2)cc1 — outcome?
Solution: active

Problem: Write down the call the test reported for this compound. Item: C1=C(c2ccccc2)C(c2ccc(OCCN3CCCCC3)cc2)Oc2ccccc21 (stereo not drawn)
Solution: active

Problem: Fill in: this test's call for CC(C)(C)c1ccc(O)c(C2CCCCC2)c1 is ___
Solution: inactive

Problem: Fill in: this test's call for CCCCCC(CCCCC)C(=O)O is ___
Solution: inactive

Problem: In this assay, the call recorded for O=C(CC1(O)C(=O)Nc2c(Cl)ccc(Cl)c21)c1ccc(Cl)cc1Cl (stereo not drawn) was what?
Solution: inactive

Problem: Hello, I am checking results. What call was entered for CCOC(=O)/C(=C\c1ccc(-c2ccccc2)cc1)C(C)=O ?
Solution: inactive

Problem: What outcome does the record of this test show for CCC(=O)Sc1ccccc1C(=O)Nc1ccc(Cl)cc1 ?
Solution: inactive

Problem: // outcome(item) with item = COC(=O)C(CSC(c1ccccc1)(c1ccccc1)c1ccccc1)NC(=O)C(CC(N)=O)NC(=O)OCc1ccccc1 (stereo not drawn) (Cbz-Asn-Cys(Trt)-OMe; configuration not given here)
Solution: active

Problem: Per the assay record, what outcome was assigned to O=C(/C=C\c1cc(Br)ccc1O)/C=C/c1cc(Br)ccc1O ?
Solution: active

Problem: What call does the record list for NC(=O)/C=C/C(=O)c1c(Cl)cccc1Cl ?
Solution: active

Problem: Test call, this compound: CCC(CC)COC(=O)c1ccc(O)c(O)c1
Solution: inactive

Problem: Recorded test call requested for N#CSCc1c(Cl)cccc1Cl
Solution: inactive

Problem: What did the test return for CCN(CC)CC(C)(C)C(=O)/C=C/c1ccc(Cl)c(Cl)c1 ?
Solution: active

Problem: In this assay, the call recorded for CCCCCCCCCCCCCCCC[N+](C)(CCO)Cc1cnc[nH]1 (stereo not drawn) was what?
Solution: active

Problem: What outcome does the record of this test show for Oc1c(Br)cc(Cl)cc1C(c1cc(Cl)cc(Br)c1O)C(Cl)(Cl)Cl ?
Solution: inactive

Problem: What outcome does the record of this test show for C[n+]1c(/C=C/c2ccc([N+](=O)[O-])cc2)ccc2ccccc21 ?
Solution: inactive

Problem: What did the test return for C[N+](C)=c1ccc2nc3c(cc(NCCCNc4cc5oc6cc(=[N+](C)C)ccc-6nc5c5ccccc45)c4ccccc43)oc-2c1 ?
Solution: active

Problem: Could you check what this test reported for O=C1NC(=O)/C(=C/C=C/c2ccccc2)S1 ?
Solution: inactive

Problem: // param item: CN1c2ccccc2C(C)(C)C12C=Cc1cc(O)ccc1O2 (stereo not drawn) ; yields the recorded call
Solution: inactive

Problem: Test call for this compound, please: NC(=S)N/N=C/c1ccc(Cl)s1
Solution: inactive

Problem: Which outcome did this test record for the compound CCCCCCC(C)c1ccccc1O (stereo not drawn) (tested in a mixture with another compound) ?
Solution: inactive

Problem: Per the assay record, what outcome was assigned to Cc1ccc2c(ccc3c[n+]4c5ccccc5ccc4n32)c1 ?
Solution: active

Problem: What classification did O=C1OCc2cccc3cccc1c23 end up with in this test?
Solution: inactive

Problem: For CN(Cc1cnc2nc(N)nc(N)c2n1)c1ccc(C(=O)NC(CCC(=O)O)C(=O)O)cc1 (stereo not drawn) , what call appears in the results of this test?
Solution: inactive

Problem: Per the records of this test, what outcome belongs to O=C1c2ccccc2C(=O)N1c1ccccc1 ?
Solution: inactive

Problem: Hi, do you know how N#CC1C(=O)SC2c3ccccc3C(=O)c3ccccc3C12 (stereo not drawn) came out in this test?
Solution: inactive

Problem: Outcome logged for O=C1c2ccccc2C(=O)c2sc(Nc3cccc(Cl)c3)nc21 in this assay:
Solution: inactive

Problem: Tell me the assay call for CCOC(=O)/C=C/c1ccc([N+](=O)[O-])o1 please.
Solution: inactive

Problem: Identify the outcome logged in this assay for the compound shown: CC(=Nc1ccc(N(C)C)cc1)c1ccccc1
Solution: inactive

Problem: Test call for this compound, please: CN(C)c1ccc(/C=N/N=C(\C#N)[S][Sn]([Cl])([c]2ccccc2)[c]2ccccc2)cc1
Solution: active

Problem: Outcome? O=C(Nc1cccc(Br)c1)Oc1ccc(Cl)c2cccnc12
Solution: inactive

Problem: What did this assay record as the result for COC(=O)c1nc(=S)[nH]c(C(=O)OC)c1C(=O)c1ccc2ccccc2c1 ?
Solution: inactive

Problem: Per the records of this test, what outcome belongs to S=C(N/N=C/c1ccccn1)Nc1ccccn1 ?
Solution: active
